Origin of measurements: ChEMBL document CHEMBL4265991

target: Inosine-5'-monophosphate dehydrogenase 2 (Homo sapiens, UniProt P12268); experiment: Inhibition of recombinant human His-tagged IMPDH2 expressed in Escherichia coli BL21 (DE3) using IMP as substrate in presence of NAD
Consider the following molecules; for each one, report its pIC50.
One number for each entry, as −log10 of the molar value.

Quick request: pIC50 for each listed item, please.
1. CC(=O)Nc1ccc(-c2nnc(SC3=CS(=O)(=O)c4ccccc43)o2)cc1
2. O=S1(=O)C=C(Sc2nnc(-c3cccc(Cl)c3)o2)c2ccccc21
3. COc1ccccc1-c1nnc(SC2=CS(=O)(=O)c3ccccc32)o1

// result
1. 5.36
2. 5.80
3. 5.49

Batch request: pIC50 per item, same order as input.
1. O=S1(=O)C=C(Sc2nnc(-c3ccccc3Cl)o2)c2ccccc21
2. Cc1ccc(-c2nnc(SC3=CS(=O)(=O)c4ccccc43)o2)cc1
3. O=S1(=O)C=C(Sc2nnc(-c3ccncc3)o2)c2ccccc21

// result
5.92
5.24
5.68

List the reported pIC50 of each molecule below.
1. O=S1(=O)C=C(Sc2nnc(-c3cccnc3)o2)c2ccccc21
2. O=S1(=O)C=C(Sc2nnc(-c3ccc(Cl)cc3)o2)c2ccccc21
3. COc1cccc(-c2nnc(SC3=CS(=O)(=O)c4ccccc43)o2)c1
4. O=S1(=O)C=C(Sc2nnc(C3CCCCC3)o2)c2ccccc21
5. O=S1(=O)C=C(Sc2nnc(-c3ccccn3)o2)c2ccccc21

// result
5.59
5.82
5.92
5.66
5.38

----------
assay: Cytotoxicity against human HepG2 cells after 24 hrs by resazurin dye-based fluorescence analysis; assay type: cell-based
Give measured CC50 at 24 h for each item. Keep answers brief.
Respond with the figure and its unit, in that order.

Example compounds with recorded CC50 at 24 h:
O=S1(=O)C=C(Sc2nnc(-c3cccc(Cl)c3)o2)c2ccccc21 = 27 µM
O=S1(=O)C=C(Sc2nnc(-c3ccccc3Cl)o2)c2ccccc21 = 25 µM

Now examine the next entry.
// query Kindly indicate its recorded CC50 at 24 h. Item: Nc1ccc(-c2nnc(SC3=CS(=O)(=O)c4ccccc43)o2)cc1
// result 24 µM

----------
experiment: Cytotoxicity against HEK293 cells after 24 hrs by resazurin dye-based fluorescence analysis; format: cell-based; details: human
observed.property: CC50 at 24 h (nM)
Answers are plain numbers, in nM.

Reference set, count: 4
COc1ccccc1-c1nnc(SC2=CS(=O)(=O)c3ccccc32)o1 = 3000
O=S1(=O)C=C(Sc2nnc(-c3ccccc3)o2)c2ccccc21 = 3000
COc1cccc(-c2nnc(SC3=CS(=O)(=O)c4ccccc43)o2)c1 = 3000
O=S1(=O)C=C(Sc2nnc(-c3cccc(Cl)c3)o2)c2ccccc21 = 6000

API: the following record is the query input.
// query Let me know recorded CC50 at 24 h for COC(=O)c1ccc(-c2nnc(SC3=CS(=O)(=O)c4ccccc43)o2)cc1 , thanks.
// result 4000

----------
target: UniProtKB P20839; experiment: Inhibition of recombinant human His-tagged IMPDH1 expressed in Escherichia coli BL21 (DE3) using IMP as substrate in presence of NAD
Sequence (P20839 whole entry): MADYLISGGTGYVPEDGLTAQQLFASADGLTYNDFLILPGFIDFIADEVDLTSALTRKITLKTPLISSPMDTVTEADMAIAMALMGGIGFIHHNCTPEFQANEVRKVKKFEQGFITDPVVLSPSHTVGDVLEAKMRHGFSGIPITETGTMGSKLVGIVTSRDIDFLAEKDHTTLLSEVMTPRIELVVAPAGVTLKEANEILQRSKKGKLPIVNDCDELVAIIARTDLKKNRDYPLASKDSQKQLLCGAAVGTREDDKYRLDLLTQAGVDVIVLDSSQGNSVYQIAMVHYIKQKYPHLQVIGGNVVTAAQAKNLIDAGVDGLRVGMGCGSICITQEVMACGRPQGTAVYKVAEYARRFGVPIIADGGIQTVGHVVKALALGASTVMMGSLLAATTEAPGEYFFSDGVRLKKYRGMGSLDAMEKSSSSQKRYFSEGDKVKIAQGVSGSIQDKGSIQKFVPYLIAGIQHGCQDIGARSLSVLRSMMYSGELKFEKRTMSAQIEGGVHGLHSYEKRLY
observed.property: IC50 (µM)
Give bare numbers, in µM.

O=S1(=O)C=C(Sc2nnc(-c3ccc(Cl)cc3)o2)c2ccccc21 = 11.1
O=S1(=O)C=C(Sc2nnc(-c3ccccc3)o2)c2ccccc21 = 5.6
O=S1(=O)C=C(Sc2nnc(-c3ccncc3)o2)c2ccccc21 = 8.6
O=S1(=O)C=C(Sc2nnc(-c3cccnc3)o2)c2ccccc21 = 6.3

// query Give the measured IC50 for O=S1(=O)C=C(Sc2nnc(-c3ccccc3Cl)o2)c2ccccc21
// result 7.2
